# Assayed target: c-Src (Homo sapiens)
# Sequence (P12931 whole entry): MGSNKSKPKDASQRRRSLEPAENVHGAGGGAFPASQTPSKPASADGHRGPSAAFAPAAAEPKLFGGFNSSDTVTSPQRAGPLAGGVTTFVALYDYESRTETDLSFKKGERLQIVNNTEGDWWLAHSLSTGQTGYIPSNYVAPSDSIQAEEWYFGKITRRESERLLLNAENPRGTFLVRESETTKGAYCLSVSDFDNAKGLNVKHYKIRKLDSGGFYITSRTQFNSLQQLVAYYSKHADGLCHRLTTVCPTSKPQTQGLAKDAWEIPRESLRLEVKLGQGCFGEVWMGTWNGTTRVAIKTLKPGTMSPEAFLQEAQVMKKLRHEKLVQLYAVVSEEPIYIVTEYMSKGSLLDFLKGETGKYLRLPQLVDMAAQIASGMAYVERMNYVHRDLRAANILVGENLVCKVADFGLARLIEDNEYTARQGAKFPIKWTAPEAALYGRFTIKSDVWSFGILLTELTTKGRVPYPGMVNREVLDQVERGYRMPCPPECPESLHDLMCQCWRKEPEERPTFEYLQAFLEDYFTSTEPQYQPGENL
Where a SMILES comes first, the peptide text is derived from it. [ ]: non-standard residue; d: D form. The star is where a group is joined. X1 = Cc1ccc(Nc2ncc3c(n2)N(C)C(=O)N(c2cc(C(=O)*)ccc2C)C3)cn1; Pip = O=C(O)[C@@H]1CCCCN1; Aze = O=C(O)[C@@H]1CCN1; Nva = CCC[C@H](N)C(=O)O; Ac3c = NC1(C(=O)O)CC1; Aib = CC(C)(N)C(=O)O
Please respond with reported IC50 for every item in the list.
Write the number in nM without appending the unit.

IN: Answer with reported IC50 of Cc1ccc(Nc2ncc3c(n2)N(C)C(=O)N(c2cc(NC(=O)c4ccc5c(c4)NC(=O)[C@H](Cc4ccccc4)N=C5c4ccccc4)ccc2C)C3)cn1 [11a]
OUT: 20.4

IN: Answer with reported IC50 of Cc1ccc(Nc2ncc3c(n2)N(C)C(=O)N(c2cc(C(=O)N[C@H](C(=O)N4CCC[C@H]4C(=O)NC(C)(C)C(=O)N[C@@H](CC(C)C)C(=O)N(C)C)C(C)C)ccc2C)C3)cn1 [7a] (X1-VP[Aib]L-NMe2)
OUT: 861

IN: Answer with reported IC50 of Cc1ccc(Nc2ncc3c(n2)N(C)C(=O)N(c2cc(NC(=O)c4ccc5c(c4)N(Cc4ccccc4)C(=O)[C@H](C)N=C5c4ccccc4)ccc2C)C3)cn1 [11d]
OUT: 15.2

IN: Answer with reported IC50 of Cc1ccc(Nc2ncc3c(n2)N(C)C(=O)N(c2cc(NC(=O)c4ccc5c(c4)N(CC(=O)NCc4ccccc4)C(=O)[C@H](CC(C)C)N=C5c4ccccc4)ccc2C)C3)cn1 [11o]
OUT: 87.5

IN: Answer with reported IC50 of Cc1ccc(Nc2ncc3c(n2)N(C)C(=O)N(c2cc(NC(=O)c4ccc5c(c4)N(C)C(=O)[C@H](CC(C)C)N=C5c4ccccc4)ccc2C)C3)cn1 [11h]
OUT: 135

IN: Answer with reported IC50 of COCCN1C(=O)[C@H](CC(C)C)N=C(c2ccccc2)c2ccc(C(=O)Nc3ccc(C)c(N4Cc5cnc(Nc6ccc(C)nc6)nc5N(C)C4=O)c3)cc21 [11n]
OUT: 48.6

IN: Answer with reported IC50 of Cc1ccc(Nc2ncc3c(n2)N(C)C(=O)N(c2cc(C(=O)N[C@H](C(=O)N4CCC[C@H]4C(=O)NC(C)(C)C(=O)NCC(=O)N(C)C)C(C)C)ccc2C)C3)cn1 [7u] (X1-VP[Aib]G-NMe2)
OUT: 1140

IN: Answer with reported IC50 of CC[C@@H](C)[C@H]1N=C(c2ccccc2)c2ccc(C(=O)Nc3ccc(C)c(N4Cc5cnc(Nc6ccc(C)nc6)nc5N(C)C4=O)c3)cc2NC1=O [11e]
OUT: 12.8

IN: Answer with reported IC50 of Cc1ccc(Nc2ncc3c(n2)N(C)C(=O)N(c2cc(C(=O)N[C@H](C(=O)N4CCC[C@@H]4C(=O)NC4(C(=O)N[C@@H](CC(C)C)C(=O)N(C)C)CC4)C(C)C)ccc2C)C3)cn1 [7e] (X1-V[dP][Ac3c]L-NMe2)
OUT: 2080

IN: Answer with reported IC50 of Cc1ccc(Nc2ncc3c(n2)N(C)C(=O)N(c2cc(NC(=O)c4ccc5c(c4)NC(=O)[C@H](Cc4ccc(F)cc4)N=C5c4ccccc4)ccc2C)C3)cn1 [11g]
OUT: 134

IN: Answer with reported IC50 of Cc1ccc(Nc2ncc3c(n2)N(C)C(=O)N(c2cc(C(=O)N[C@H](C(=O)N4CCC[C@H]4C(=O)NC4(C(=O)N[C@@H](CC(C)C)C(=O)N(C)C)CC4)C(C)C)ccc2C)C3)cn1 [7d] (X1-VP[Ac3c]L-NMe2)
OUT: 555

IN: Answer with reported IC50 of Cc1ccc(Nc2ncc3c(n2)N(C)C(=O)N(c2cc(C(=O)N[C@H](C(=O)N4CCCC[C@H]4C(=O)NC(C)(C)C(=O)N[C@@H](CC(C)C)C(=O)N(C)C)C(C)C)ccc2C)C3)cn1 [7j] (X1-V[Pip][Aib]L-NMe2)
OUT: 586

IN: Answer with reported IC50 of Cc1ccc(Nc2ncc3c(n2)N(C)C(=O)N(c2cc(C(=O)N[C@H](C(=O)N4CCC[C@H]4C(=O)NC(C)(C)C(=O)N[C@H](C(=O)N(C)C)C(C)C)C(C)C)ccc2C)C3)cn1 [7n] (X1-VP[Aib]V-NMe2)
OUT: 3140

IN: Answer with reported IC50 of Cc1ccc(Nc2ncc3c(n2)N(C)C(=O)N(c2cc(C(=O)N[C@H](C(=O)N4CCC[C@@H]4C(=O)NC(C)(C)C(=O)N[C@@H](CC(C)C)C(=O)N(C)C)C(C)C)ccc2C)C3)cn1 [7b] (X1-V[dP][Aib]L-NMe2)
OUT: 379

IN: Answer with reported IC50 of Cc1ccc(Nc2ncc3c(n2)N(C)C(=O)N(c2cc(C(=O)N[C@@H](CC(C)C)C(=O)N4CCC[C@H]4C(=O)NC(C)(C)C(=O)N[C@@H](CC(C)C)C(=O)N(C)C)ccc2C)C3)cn1 [7q] (X1-LP[Aib]L-NMe2)
OUT: 174

IN: Answer with reported IC50 of Cc1ccc(Nc2ncc3c(n2)N(C)C(=O)N(c2cc(C(=O)N[C@H](C(=O)N4CC[C@H]4C(=O)NC(C)(C)C(=O)N[C@@H](CC(C)C)C(=O)N(C)C)C(C)C)ccc2C)C3)cn1 [7k] (X1-V[Aze][Aib]L-NMe2)
OUT: 921

IN: Answer with reported IC50 of CCC[C@H](NC(=O)c1ccc(C)c(N2Cc3cnc(Nc4ccc(C)nc4)nc3N(C)C2=O)c1)C(=O)N1CCC[C@H]1C(=O)NC(C)(C)C(=O)N[C@@H](CC(C)C)C(=O)N(C)C [7t] (X1-[Nva]P[Aib]L-NMe2)
OUT: 477

IN: Answer with reported IC50 of Cc1ccc(Nc2ncc3c(n2)N(C)C(=O)N(c2cc(C(=O)NCC(=O)N4CCC[C@H]4C(=O)NC(C)(C)C(=O)N[C@@H](CC(C)C)C(=O)N(C)C)ccc2C)C3)cn1 [7r] (X1-GP[Aib]L-NMe2)
OUT: 577

IN: Answer with reported IC50 of Cc1ccc(Nc2ncc3c(n2)N(C)C(=O)N(c2cc(C(=O)N[C@H](C(=O)N4CCC[C@H]4C(=O)NCC(=O)N[C@@H](CC(C)C)C(=O)N(C)C)C(C)C)ccc2C)C3)cn1 [7g] (X1-VPGL-NMe2)
OUT: 1370
